Reference for the values: the supplement of paper PMC8728848

# targetOrTestSystem: Fuc(a1-2)[Gal(a1-3)]Gal
# assayComment: glycan array binding signal (z-score within array); higher = stronger binding
# protocolConditions: glycan notation: IUPAC condensed, linker removed
This excerpt belongs to a sample that is enriched for the strongest signals.
In this section, each of the binders is paired with its reported glycan array binding signal (z-score).
endpointName: glycan array binding signal (z-score)

binder: AT5G24760(45) (Arabidopsis thaliana), Q8LEB2 (protein) MSASSSSFEQPQVITCNAAVAWRAGEPLVMEEVEVSPPQPLEIRIKVVCTSLCRSDLSAWESQSLLPRIFGHEAAGIVESIGEGVTEFEKGDHVLAVFTGECGSCRHCISGKSNMCQVLGMERKGLMHSDQKTRFSIKGKPVYHYCAVSSFSEYTVVHSGCAVKVDPLAPLHKICLLSCGVAAGLGAAWNVADVQKGSSVVIFGLGTVGLSVAQGAKLRGAAQILGVDINPAKAEQAKTFGVTDFINSNDLSEPIPQVIKRMTGGGADFSFECVGDTGIATTALQSCSDGWGMTVTLGVPKAKPEVSAHYGLFLSGKSLKGTLFGGWKPKSDLPSLIDKYMNKEIMIDEFITHNLSFDEINKAFVLMREGKCLRCVLHMPK
reading: 0.984

binder: CD23 (Homo sapiens) (protein) MELQVSSGFVCNTCPEKWINFQRKCYYFGKGTKQWVHARYACDDMEGQLVSIHSPEEQDFLTKHASHTGSWIGLRNLDLKGEFIWVDGSHVDYSNWAPGEPTSRSQGEDCVMMRGSGRWNDAFCDRKLGAWVCDRLATCTPPASEGSAESMGPDSRPDPDGRLPTPSAPLHS
reading: -0.374

binder: cFel (Cyprinus carpio), P68512 (protein) LDCTVIDGNLKQIDAGSGSVVGVNNLNETFVLIDNVFTKISGSLKHFSVGPAGQLGVNTANNIFKYQSGGFVQLAGLLKQVDAGGDQIIAGVNMYDDIYCLNMDANNKWPSSNTPWVQINGKLKYYSCGPYSCWGVNSNDQIFIMKDVSSNVCSGSGSFINIPGLLSMIEVATDGSVFGVNSQGNLYQRTGVTRSKPDGTDWISMVACPNGHKHVSFDLGVLWLVCVDGSIRKCILTD
reading: 2.61

binder: UEA-I (Ulex europaeus), P22972 (protein) SDDLSFKFKNFSQNGKDLSFQGDASVIETGVLQLNKVGNNLPDETGGIARYIAPIHIWNCNTGEVASFITSFSFFMETSANPKAATDGLTFFLAPPDSPLRRAGGYFGLFEDTKDNDSSYQTVAVEFDTIGSPVNFDDPGFPHIGIDVNRVKSINAERWNKRYGLNNVANVEIIYEASSKTLTASLTYPSDQTSISVTSIVDLKEILPEWVSVGFSGGTYIGRQATHEVLNWYFTSNLINTNS
reading: -0.199

binder: Langerin K313I (Homo sapiens), Q9UJ71 (protein) STLNAQIPELKSDLEKASALNTKIRALQGSLENMSKLLKRQNDILQVVSQGWKYFKGNFYYFSLIPKTWYSAEQFCVSRNSHLTSVTSESEQEFLYKTAGGLIYWIGLTKAGMEGDWSWVDDTPFNKVQSARFWIPGEPNNAGNNEHCGNIKAPSLQAWNDAPCDITFLFICKRPYVPSEP
reading: 4.11
